Data credit: ChEMBL document CHEMBL1909507

- protocol-summary: Toxicity against fertilized chicken embryo assessed as mortality at 3 ug, iv by CAM assay
- Assay type: organism-based, Gallus gallus
- condition-set: in vivo, read-out: Activity
Please provide measured mortality for the entries that follow.
One number for each entry, in %.

{"columns": ["smiles-record", "result-units", "mortality"],
 "data": [
  ["COc1cc(NS(=O)(=O)c2ccc(N3CCNC3=O)cc2)cc(OC)c1OC", "%", 40],
  ["COc1cc(NS(=O)(=O)c2ccc(N3CCNC3=O)cc2)cc(OC)c1", "%", 13],
  ["O=C1NCCN1c1ccc(S(=O)(=O)Nc2cccc(Br)c2)cc1", "%", 24],
  ["O=C1NCCN1c1ccc(S(=O)(=O)Nc2ccc3[nH]ccc3c2)cc1", "%", 8],
  ["CCc1cccc(NS(=O)(=O)c2ccc(N3CCNC3=O)cc2)c1", "%", 11],
  ["COc1ccc(/C=C\\c2cc(OC)c(OC)c(OC)c2)cc1O", "%", 45],
  ["O=C1NCCN1c1ccc(S(=O)(=O)Nc2cccc(Cl)c2)cc1", "%", 8],
  ["COc1cccc(NS(=O)(=O)c2ccc(N3CCNC3=O)cc2)c1", "%", 16],
  ["Cc1ccc(C)c(NS(=O)(=O)c2ccc(N3CCNC3=O)cc2)c1", "%", 27],
  ["Cc1cc(C)cc(NS(=O)(=O)c2ccc(N3CCNC3=O)cc2)c1", "%", 8]
]}

[ask] Tell me its mortality given `Cc1cccc(NS(=O)(=O)c2ccc(N3CCNC3=O)cc2)c1` as the entry.
[reply] 8
